system_tested: FGFR4 ectodomain (Homo sapiens, UniProt P22455)
test_details: AVEXIS normalised luminescence
measured_attribute: binding score
I only need the number, thanks.

# binder, binding score
data = [
    ("74 (protein, bait human Fc-tagged dimer) YNLNNDLSKNNNFALNTYVRKDDVEDDSKNEIVDNIQKMVDDFSDDIGFVKTSMREVLLDTEASLEEVSDHVVQNIAKYSLTIEEKLNLFDGLLEEFIENNKGLISNLAKRQQKLKGDKIKKVCDLILKKLKKLENVNKLIKYKIILKYGNKDNKKEMIQTLKNEEGLSDDFKNNLANYETEQNNDDIKEIELVNFISTNYDKFVVNLEDLNKELLKDLNMALS", 1.05),
]

query: Need binding score of 71 (protein, bait human Fc-tagged dimer) EERYNFNMDKMLKITCHINLHLKKNPHFTITYKKNLQECIDSCKTNIYCTGIEFSRKRVEYTQIILKNNKKIILGYFKCKQFYFQNIYDYSSYNLDSYLNEHIENQINIKSTLTYTNFIMRNKPDIIYTCSIDRDPKYLLYKNYKLVECVIGKFCPGNNAPYMISCPINSATIIPASEDVNKCLCLKGYSYVGVTSYRCSLCDRGSYKNSVGNNKCDNCPLTFSTTHRGSTNIKDCSCTSGNYLTFD , thanks.
result: 1
